# growth inhibition (%) to tumor cell annotations
Tested on: HLE
Test: enhancement of antioncotic effect of chemotherapeutics by LK 2 (Experiment C-1, Table V)
Assay type: cell-based, human
Conditions: -, without LK 2; ACNU 1.0×10^-6, 5-FU 1.5×10^-8, ADM 1.0×10^-10, MMC 2.5×10^-9 g/ml culture, VCR 1.5×10^-10 g/culture
Counter-ions that a name gives are not always drawn.
observation_type: growth inhibition (%) to tumor cell

compound="CO[C@@]12[C@H](COC(N)=O)C3=C(C(=O)C(C)=C(N)C3=O)N1C[C@@H]1N[C@@H]12 [MMC, mitomycin C]" observation_type="growth inhibition (%) to tumor cell" value_observed=12
compound="Cc1ncc(CNC(=O)N(CCCl)N=O)c(N)n1 [ACNU, nimustine hydrochloride]" observation_type="growth inhibition (%) to tumor cell" value_observed=5
compound="COc1cccc2c1C(=O)c1c(O)c3c(c(O)c1C2=O)C[C@@](O)(C(=O)CO)C[C@@H]3O[C@H]1C[C@H](N)[C@H](O)[C@H](C)O1 [ADM, doxorubicin]" observation_type="growth inhibition (%) to tumor cell" value_observed=7
compound="O=c1[nH]cc(F)c(=O)[nH]1 [5-FU, fluorouracil]" observation_type="growth inhibition (%) to tumor cell" value_observed=8
compound="CC[C@]1(O)C[C@H]2CN(CCc3c([nH]c4ccccc34)[C@@](C(=O)OC)(c3cc4c(cc3OC)N(C=O)[C@H]3[C@@](O)(C(=O)OC)[C@H](OC(C)=O)[C@]5(CC)C=CCN6CC[C@]43[C@@H]65)C2)C1 (stereo in doubt) [VCR, vincristine sulfate]" observation_type="growth inhibition (%) to tumor cell" value_observed=10

---

Tested on: HeLa
Assay: enhancement of antioncotic effect of chemotherapeutics by LK 2 (Experiment C-1, Table V)
Format: cell-based, human
Conditions: -, without LK 2; ACNU 1.0×10^-6, 5-FU 1.5×10^-8, ADM 1.0×10^-10, MMC 2.5×10^-9 g/ml culture, VCR 1.5×10^-10 g/culture
Structures can show the parent of a compound that is named as a salt.
observation_type: growth inhibition (%) to tumor cell

compound=COc1cccc2c1C(=O)c1c(O)c3c(c(O)c1C2=O)C[C@@](O)(C(=O)CO)C[C@@H]3O[C@H]1C[C@H](N)[C@H](O)[C@H](C)O1 value_observed=7
compound=O=c1[nH]cc(F)c(=O)[nH]1 value_observed=12
compound="Cc1ncc(CNC(=O)N(CCCl)N=O)c(N)n1 [ACNU, nimustine hydrochloride]" value_observed=5
compound=CO[C@@]12[C@H](COC(N)=O)C3=C(C(=O)C(C)=C(N)C3=O)N1C[C@@H]1N[C@@H]12 value_observed=7
compound="CC[C@]1(O)C[C@H]2CN(CCc3c([nH]c4ccccc34)[C@@](C(=O)OC)(c3cc4c(cc3OC)N(C=O)[C@H]3[C@@](O)(C(=O)OC)[C@H](OC(C)=O)[C@]5(CC)C=CCN6CC[C@]43[C@@H]65)C2)C1 (stereo in doubt) [VCR, vincristine sulfate]" value_observed=10

---

System: HEp#2
Assay: enhancement of antioncotic effect of chemotherapeutics by LK 2 (Experiment C-1, Table V)
Format: cell-based, human
Conditions: -, without LK 2; ACNU 1.0×10^-6, 5-FU 1.5×10^-8, ADM 1.0×10^-10, MMC 2.5×10^-9 g/ml culture, VCR 1.5×10^-10 g/culture
Counter-ions that a name gives are not always drawn.
observation_type: growth inhibition (%) to tumor cell

compound=CO[C@@]12[C@H](COC(N)=O)C3=C(C(=O)C(C)=C(N)C3=O)N1C[C@@H]1N[C@@H]12 value_observed=10
compound="CC[C@]1(O)C[C@H]2CN(CCc3c([nH]c4ccccc34)[C@@](C(=O)OC)(c3cc4c(cc3OC)N(C=O)[C@H]3[C@@](O)(C(=O)OC)[C@H](OC(C)=O)[C@]5(CC)C=CCN6CC[C@]43[C@@H]65)C2)C1 (stereo in doubt) [VCR, vincristine sulfate]" value_observed=5
compound="Cc1ncc(CNC(=O)N(CCCl)N=O)c(N)n1 [ACNU, nimustine hydrochloride]" value_observed=4
compound=O=c1[nH]cc(F)c(=O)[nH]1 value_observed=8
compound=COc1cccc2c1C(=O)c1c(O)c3c(c(O)c1C2=O)C[C@@](O)(C(=O)CO)C[C@@H]3O[C@H]1C[C@H](N)[C@H](O)[C@H](C)O1 value_observed=13
